# Test system: Apomorphine-induced agitation
# Assay notes: Reversal of Apomorphine-induced Agitation in Rats (APO)
# Assay type: in vivo, rat
# Condition notes: subcutaneous route; apomorphine 1.0 mg/kg i.v.
Readout label: SC Max effect (cumulative agitation score over 60 min)

Take a look at these entries with their results.
input: Please report the recorded SC Max effect (cumulative agitation score over 60 min) for Cc1nc2ccc(C(=O)NCCN3CCOCC3)cc2n2c(-c3ccccc3Cl)nnc12 [Compound B-36] .
output: 21

input: Please report the recorded SC Max effect (cumulative agitation score over 60 min) for CCNCc1ccc2nc(C)c3nnc(-c4ccccc4Cl)n3c2c1 [Compound B-20] .
output: 21

input: Please report the recorded SC Max effect (cumulative agitation score over 60 min) for COC1CCN(Cc2ccc3nc(C)c4nnc(-c5ccccc5Cl)n4c3c2)CC1 [Compound B-93] .
output: 7

input: Please report the recorded SC Max effect (cumulative agitation score over 60 min) for Cc1nc2ccc(CN3CCC(F)CC3)cc2n2c(-c3ccccc3Cl)nnc12 [Compound B-61] .
output: 15

input: Please report the recorded SC Max effect (cumulative agitation score over 60 min) for Cc1nc2ccc(CN3CCCC(O)C3)cc2n2c(-c3ccccc3Cl)nnc12 (stereo not shown) [Compound B-62] .
output: 21

Others:
input: Please report the recorded SC Max effect (cumulative agitation score over 60 min) for Cc1nc2ccc(CN[C@H]3CC[C@H](O)CC3)cc2n2c(-c3ccccc3Cl)nnc12 [Compound B-90] .
output: 25

input: Please report the recorded SC Max effect (cumulative agitation score over 60 min) for COc1cncc(-c2nnc3c(C)nc4ccc(CN5CCOCC5)cc4n23)c1 [Compound B-91] .
output: 21

input: Please report the recorded SC Max effect (cumulative agitation score over 60 min) for CCOc1ccc(Cl)c(-c2nnc3c(C)nc4ccc(N5CCN(C)CC5)cc4n23)c1 [Compound B-102] .
output: 21

input: Please report the recorded SC Max effect (cumulative agitation score over 60 min) for Cc1nc2ccc(CN3CCN(C)CC3)cc2n2c(-c3ccccc3Cl)nnc12 [Compound B-73] .
output: 19

input: Please report the recorded SC Max effect (cumulative agitation score over 60 min) for Cc1nc2ccc(CN3CCOCC3)cc2n2c(-c3ccccc3Cl)nnc12 [Compound B-19] .
output: 14

input: Please report the recorded SC Max effect (cumulative agitation score over 60 min) for Cc1nc2ccc(CN3CCOC(CCF)C3)cc2n2c(-c3ccccc3Cl)nnc12 (stereo not shown) [Compound B-89] .
output: 24

input: Please report the recorded SC Max effect (cumulative agitation score over 60 min) for Cc1nc2ccc(N3CCN(C)CC3)cc2n2c(-c3ccccc3Cl)nnc12 [Compound B-16] .
output: 21

input: Please report the recorded SC Max effect (cumulative agitation score over 60 min) for Cc1nc2ccc(C(=O)NC3CCN(C)CC3)cc2n2c(-c3ccccc3Cl)nnc12 [Compound B-47] .
output: 22

input: Please report the recorded SC Max effect (cumulative agitation score over 60 min) for Cc1nc2ccc(CN3CCC(O)C3)cc2n2c(-c3ccccc3Cl)nnc12 (stereo not shown) [Compound B-57] .
output: 22

input: Please report the recorded SC Max effect (cumulative agitation score over 60 min) for CCOc1ccc(Cl)c(-c2nnc3c(C)nc4ccc(OCCc5cccnc5)cc4n23)c1 [Compound B-121] .
output: 21

input: Please report the recorded SC Max effect (cumulative agitation score over 60 min) for Cc1nc2ccc(CN3CCC(O)CC3)cc2n2c(-c3ccccc3Cl)nnc12 [Compound B-81] .
output: 19

input: Please report the recorded SC Max effect (cumulative agitation score over 60 min) for CCCCOc1cncc(-c2nnc3c(C)nc4ccc(CN5CCOCC5)cc4n23)c1.Cl [Compound B-17a] .
output: 23

input: Please report the recorded SC Max effect (cumulative agitation score over 60 min) for Cc1nc2ccc(CN3CCOC(CF)C3)cc2n2c(-c3ccccc3Cl)nnc12 (stereo not shown) [Compound B-59] .
output: 15

input: Please report the recorded SC Max effect (cumulative agitation score over 60 min) for Cc1nc2ccc(C(=O)N(C)Cc3ccccc3)cc2n2c(-c3ccccc3)nnc12 [Compound B-104] .
output: 21

input: Please report the recorded SC Max effect (cumulative agitation score over 60 min) for Cc1ncccc1-c1nnc2c(C)nc3ccc(CN4CCOCC4)cc3n12 [Compound B-118] .
output: 17

input: Please report the recorded SC Max effect (cumulative agitation score over 60 min) for Cc1nc2ccc(CN3CCOC(CO)C3)cc2n2c(-c3ccccc3Cl)nnc12 (stereo not shown) [Compound B-55] .
output: 22

input: Please report the recorded SC Max effect (cumulative agitation score over 60 min) for CCCOc1ccc(Cl)c(-c2nnc3c(C)nc4ccc(CN5CCOCC5)cc4n23)c1 [Compound B-72] .
output: 23

input: Please report the recorded SC Max effect (cumulative agitation score over 60 min) for Cc1nc2ccc(OCCc3ccccn3)cc2n2c(-c3ccccc3Cl)nnc12 [Compound B-15] .
output: 10

input: Please report the recorded SC Max effect (cumulative agitation score over 60 min) for Cc1nc2ccc(CN3CCOCC3)cc2n2c(-c3c(F)cccc3Cl)nnc12 [Compound B-23] .
output: 1

input: Please report the recorded SC Max effect (cumulative agitation score over 60 min) for Cc1nc2ccc(CNC3CCOCC3)cc2n2c(-c3ccccc3Cl)nnc12 [Compound B-76] .
output: 16

* * *

# System: Human recombinant PDE2A (hPDE2A) (Homo sapiens)
# Construct: made in house; host or cells: Sf9 insect cells (baculovirus)
# Assay notes: In vitro assay PDE2A (SPA, 3H-cGMP)
# Type: biochemical
# Condition notes: read-out: pIC50 PDE2 (converted)
Hi! Just check whether IC50 is below 10 nM. Below gives 1, equal or above gives 0.

Solved cases below.
input: For Cc1nc2ccc(C(=O)NCCF)cc2n2c(-c3ccccc3Cl)nnc12 [Compound B-40] , is the recorded IC50 below the cut-off of 10 nM?
output: 1

input: For Cc1nc2ccc(CN3CCC(O)CC3)cc2n2c(-c3ccccc3Cl)nnc12 [Compound B-81] , is the recorded IC50 below the cut-off of 10 nM?
output: 1

input: For CCCOc1ccc(Cl)c(-c2nnc3c(C)nc4ccc(CNc5cccnc5)cc4n23)c1 [Compound B-138] , is the recorded IC50 below the cut-off of 10 nM?
output: 0

input: For CCCOc1ccc(Cl)c(-c2nnc3c(C)nc4ccc(OC[C@@H]5CCCN5)cc4n23)c1 [Compound B-161] , is the recorded IC50 below the cut-off of 10 nM?
output: 0

input: For CCOc1ccc(Cl)c(-c2nnc3c(C)nc4ccc(Br)cc4n23)c1 [Compound B-85] , is the recorded IC50 below the cut-off of 10 nM?
output: 0

Others:
input: For Cc1nc2ccc(Br)cc2n2c(-c3ccccc3OC(F)(F)F)nnc12 [Compound B-159] , is the recorded IC50 below the cut-off of 10 nM?
output: 0

input: For Cc1nc2ccc(CN3CCC(O)CC3)cc2n2c(-c3cc(OC(C)C)ccc3Cl)nnc12 [Compound B-136] , is the recorded IC50 below the cut-off of 10 nM?
output: 0

input: For CCOC(=O)c1ccc2c(c1)nc(C)c1nnc(-c3ccccc3Cl)n12 [Compound B-1b] , is the recorded IC50 below the cut-off of 10 nM?
output: 0

input: For Cc1nc2ccc(C(=O)NCCCc3ccccc3)cc2n2c(-c3ccccc3)nnc12 [Compound B-77] , is the recorded IC50 below the cut-off of 10 nM?
output: 1

input: For COCCC1CN(Cc2ccc3nc(C)c4nnc(-c5ccccc5Cl)n4c3c2)CCO1 (centres unmarked) [Compound B-106] , is the recorded IC50 below the cut-off of 10 nM?
output: 0

input: For COc1ccccc1-c1nnc2c(C)nc3ccc(C(=O)NCc4ccccn4)cc3n12 [Compound B-53] , is the recorded IC50 below the cut-off of 10 nM?
output: 1

* * *

# System: Human recombinant PDE2A (hPDE2A) (Homo sapiens, UniProt O00408)
# Construct: made in house; host or cells: Sf9 insect cells (baculovirus)
# Sequence (O00408 whole entry): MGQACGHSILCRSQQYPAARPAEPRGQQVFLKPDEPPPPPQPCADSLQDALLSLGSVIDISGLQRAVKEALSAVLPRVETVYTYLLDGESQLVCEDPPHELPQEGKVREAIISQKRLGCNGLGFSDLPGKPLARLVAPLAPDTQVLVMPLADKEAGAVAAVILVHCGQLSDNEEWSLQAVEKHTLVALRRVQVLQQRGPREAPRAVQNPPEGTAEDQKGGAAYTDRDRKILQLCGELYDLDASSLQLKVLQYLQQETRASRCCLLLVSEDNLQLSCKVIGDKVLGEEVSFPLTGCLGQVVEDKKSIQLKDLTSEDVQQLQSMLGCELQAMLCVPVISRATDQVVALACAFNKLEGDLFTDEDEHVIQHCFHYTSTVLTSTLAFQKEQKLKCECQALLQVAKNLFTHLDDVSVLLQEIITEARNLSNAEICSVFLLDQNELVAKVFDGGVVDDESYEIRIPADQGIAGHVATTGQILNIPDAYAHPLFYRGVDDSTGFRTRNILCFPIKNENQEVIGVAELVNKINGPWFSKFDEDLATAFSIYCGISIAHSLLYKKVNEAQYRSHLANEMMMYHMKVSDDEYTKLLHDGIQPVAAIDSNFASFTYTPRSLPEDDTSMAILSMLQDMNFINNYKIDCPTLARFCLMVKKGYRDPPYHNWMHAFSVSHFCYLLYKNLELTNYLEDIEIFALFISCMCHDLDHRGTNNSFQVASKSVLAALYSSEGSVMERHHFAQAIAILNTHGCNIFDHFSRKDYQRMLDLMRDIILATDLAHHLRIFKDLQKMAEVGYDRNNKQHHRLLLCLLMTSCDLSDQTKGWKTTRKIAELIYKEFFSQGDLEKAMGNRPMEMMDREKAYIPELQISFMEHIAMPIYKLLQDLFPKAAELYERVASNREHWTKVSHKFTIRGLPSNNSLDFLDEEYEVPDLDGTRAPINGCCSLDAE
# Assay notes: In vitro assay PDE2A (SPA, 3H-cGMP)
# Format: biochemical
# Condition notes: read-out: pIC50 PDE2 (converted)
Readout label: IC50 (nM)
Please respond with the number in nM and leave the unit unwritten.

Take a look at these entries with their results.
input: Please report the recorded IC50 for `CCOCc1cncc(-c2nnc3c(C)nc4ccc(CN(C)C)cc4n23)c1` .
output: 355

input: Please report the recorded IC50 for `COc1cc(NC(=O)c2ccc3nc(C)c4nnc(-c5ccccc5Cl)n4c3c2)cc(OC)c1OC` .
output: 2.34

input: Please report the recorded IC50 for COCC1CCN(Cc2ccc3nc(C)c4nnc(-c5ccccc5Cl)n4c3c2)C1 (centres unmarked) .
output: 12.9

Others:
input: Please report the recorded IC50 for `Cc1nc2ccc(CNC3CCOCC3)cc2n2c(-c3ccccc3Cl)nnc12` .
output: 7.08

input: Please report the recorded IC50 for `CCCCOc1ccc(Cl)c(-c2nnc3c(C)nc4ccc(CN5CCN(C)CC5)cc4n23)c1` .
output: 60.3

input: Please report the recorded IC50 for `Cc1nc2ccc(OCCc3ccccn3)cc2n2c(-c3ccccc3Cl)nnc12` .
output: 8.71

input: Please report the recorded IC50 for `COc1cc(CNC(=O)c2ccc3nc(C)c4nnc(-c5ccccc5Cl)n4c3c2)cc(OC)c1OC` .
output: 5.89

input: Please report the recorded IC50 for `Cc1nc2ccc(Br)cc2n2c(-c3cncc(OCC4CC4)c3)nnc12` .
output: 27.5

input: Please report the recorded IC50 for Cc1nc2ccc(CN3CCOC(CCO)C3)cc2n2c(-c3ccccc3Cl)nnc12 (centres unmarked) .
output: 5.62

input: Please report the recorded IC50 for `Cc1nc2ccc(NC3CCN(C)CC3)cc2n2c(-c3ccccc3Cl)nnc12` .
output: 44.7
